tested on: ChaGo-K-1; test: relative viability (nuclei count vs DMSO), 5 days (fraction); higher = more cells survive; conditions: first compound 0.4 µM
In plain terms, low relative viability, meaning strictly below 0.6, gives yes (1), and everything else gives no (0).

Please review the following examples before continuing.
Lookup: Threshold test, relative viability < 0.6: COc1cc(N2CCC(C(N)=O)CC2)ccc1Nc1nc(N)c(Cl)c(Nc2ccccc2S(=O)(=O)C(C)C)n1 [HG-5-88-01] + CC(C)C[C@H](NC(=O)[C@H](Cc1ccccc1)NC(=O)c1cnccn1)B(O)O [Bortezomib] (partner 0.002 µM)
Found: no (0)

Lookup: Also check COc1cc(N2CCC(C(N)=O)CC2)ccc1Nc1nc(N)c(Cl)c(Nc2ccccc2S(=O)(=O)C(C)C)n1 [HG-5-88-01] + O=C(CCCCCCC(=O)Nc1ccccc1)NO [Vorinostat] (partner 1 µM)
Found: no (0)

Lookup: Would you kindly repeat that for COc1cc(N2CCC(C(N)=O)CC2)ccc1Nc1nc(N)c(Cl)c(Nc2ccccc2S(=O)(=O)C(C)C)n1 [HG-5-88-01] + Nc1nc2[nH]cc(CCc3ccc(C(=O)N[C@@H](CCC(=O)O)C(=O)O)cc3)c2c(=O)[nH]1 [Pemetrexed] (partner 0.2 µM) ?
Found: yes (1)

Lookup: Another: C[C@@H]1CN(CC(=O)Nc2ccc3c(c2)Cc2cccc(-c4cc(=O)cc(N5CCOCC5)o4)c2S3)C[C@H](C)O1 + Nc1nc2[nH]cc(CCc3ccc(C(=O)N[C@@H](CCC(=O)O)C(=O)O)cc3)c2c(=O)[nH]1 [Pemetrexed] (partner 0.2 µM)
Found: yes (1)

Lookup: Check C[C@@H]1CN(CC(=O)Nc2ccc3c(c2)Cc2cccc(-c4cc(=O)cc(N5CCOCC5)o4)c2S3)C[C@H](C)O1 + Nc1ncn([C@H]2C[C@H](O)[C@@H](CO)O2)c(=O)n1 [Decitabine] (partner 2 µM) too.
Found: yes (1)

# next molecule below
Lookup: Determine if Clc1ccc(Nc2nnc(Cc3ccncc3)c3ccccc23)cc1 [Vatalanib] + COc1cccc2cc(-c3nc([C@H]4CC[C@H](C(=O)O)CC4)n4ncnc(N)c34)[nH]c12 [OSI-027] (partner 0.5 µM) shows relative viability strictly lower than 0.6.
Found: no (0)
